Protocol Notes: In vitro cytotoxicity, src^ts-NRK
Type: cell-based, rat
Assay Context: rat; src^ts-NRK cells
Measurement Label: IC50

>>> endpoint_result("C/C=C/C=C/[C@@H]1C(C)=C[C@@H]2C[C@@H](C)CC[C@H]2[C@]1(C)C(=O)C1=C(O)C(CO)NC1=O (stereo partly shown) [Compound 6]")
"> 70 µM"
>>> endpoint_result("C/C=C/C=C/[C@H]1C(C)=C[C@H]2C[C@@H](C)CC[C@@H]2[C@@]1(C)C(=O)C1=C(O)[C@@H](CO)NC1=O [Compound 5, N-demethylphomasetin]")
"63 µM"
>>> endpoint_result("C/C=C/[C@H]1C=C[C@H]2C[C@H](C)CC[C@H]2[C@]1(C)C(=O)C1=C(O)[C@H](CO)N(C)C1=O [Compound 3, cis-equisetin]")
"35 µM"
>>> endpoint_result("C/C=C/C=C/[C@@H]1C(C)=C[C@@H]2C[C@@H](C)CC[C@@H]2[C@@]1(C)C(=O)C1=C(O)[C@@H](CO)NC1=O [Compound 4, N-demethyl-cis-phomasetin]")
"> 75 µM"
>>> endpoint_result("C/C=C/[C@@H]1C=C[C@@H]2C[C@H](C)CC[C@H]2[C@]1(C)C(=O)C1=C(O)[C@H](CO)N(C)C1=O [Compound 1, equisetin]")
"20 µM"
>>> endpoint_result("C/C=C/C=C/[C@H]1C(C)=C[C@H]2C[C@@H](C)CC[C@@H]2[C@@]1(C)C(=O)C1=C(O)[C@@H](CO)N(C)C1=O [Compound 2, phomasetin]")
"11 µM"
>>> endpoint_result("CC1=C[C@@H]2C[C@@H](C)CC[C@@H]2[C@@](C)(C(=O)C2=C(O)[C@@H](CO)NC2=O)[C@@H]1/C=C/C=C/C(=O)O [Compound 8]")
"> 70 µM"

###

Test system: Escherichia coli HO141
Protocol Notes: Antimicrobial assay, E. coli
Assay type: cell-based
Assay Context: Escherichia coli HO141; read-out: Antimicrobial activity (IC50, μM) Ec
Form field: IC50 (one value per entry).
Measurement Label: IC50 (µM)

>>> endpoint_result("C/C=C/[C@H]1C=C[C@H]2C[C@H](C)CC[C@H]2[C@]1(C)C(=O)C1=C(O)[C@H](CO)N(C)C1=O [Compound 3, cis-equisetin]")
20
>>> endpoint_result("C/C=C/[C@@H]1C=C[C@@H]2C[C@H](C)CC[C@H]2[C@]1(C)C(=O)C1=C(O)[C@H](CO)N(C)C1=O")
13

###

System: Escherichia coli HO141
Protocol Notes: Antimicrobial assay, E. coli
Format: cell-based
Assay Context: Escherichia coli, HO141, read-out: Antimicrobial activity (IC50, μM) Ec
Measurement Label: IC50 (µM)

>>> endpoint_result("C/C=C/C=C/[C@H]1C(C)=C[C@H]2C[C@@H](C)CC[C@@H]2[C@@]1(C)C(=O)C1=C(O)[C@@H](CO)NC1=O")
2.5
>>> endpoint_result("C/C=C/C=C/[C@H]1C(C)=C[C@H]2C[C@@H](C)CC[C@@H]2[C@@]1(C)C(=O)C1=C(O)[C@@H](CO)N(C)C1=O")
1.3
>>> endpoint_result("C/C=C/C=C/[C@@H]1C(C)=C[C@@H]2C[C@@H](C)CC[C@@H]2[C@@]1(C)C(=O)C1=C(O)[C@@H](CO)NC1=O [Compound 4, N-demethyl-cis-phomasetin]")
1.5
